Study target: hTMEM16A (abc) (Homo sapiens, UniProt Q5XXA6, DEL476-501)
Sequence (Q5XXA6 with tags, fused parts or gaps isoform Q5XXA6-5 DEL539-564): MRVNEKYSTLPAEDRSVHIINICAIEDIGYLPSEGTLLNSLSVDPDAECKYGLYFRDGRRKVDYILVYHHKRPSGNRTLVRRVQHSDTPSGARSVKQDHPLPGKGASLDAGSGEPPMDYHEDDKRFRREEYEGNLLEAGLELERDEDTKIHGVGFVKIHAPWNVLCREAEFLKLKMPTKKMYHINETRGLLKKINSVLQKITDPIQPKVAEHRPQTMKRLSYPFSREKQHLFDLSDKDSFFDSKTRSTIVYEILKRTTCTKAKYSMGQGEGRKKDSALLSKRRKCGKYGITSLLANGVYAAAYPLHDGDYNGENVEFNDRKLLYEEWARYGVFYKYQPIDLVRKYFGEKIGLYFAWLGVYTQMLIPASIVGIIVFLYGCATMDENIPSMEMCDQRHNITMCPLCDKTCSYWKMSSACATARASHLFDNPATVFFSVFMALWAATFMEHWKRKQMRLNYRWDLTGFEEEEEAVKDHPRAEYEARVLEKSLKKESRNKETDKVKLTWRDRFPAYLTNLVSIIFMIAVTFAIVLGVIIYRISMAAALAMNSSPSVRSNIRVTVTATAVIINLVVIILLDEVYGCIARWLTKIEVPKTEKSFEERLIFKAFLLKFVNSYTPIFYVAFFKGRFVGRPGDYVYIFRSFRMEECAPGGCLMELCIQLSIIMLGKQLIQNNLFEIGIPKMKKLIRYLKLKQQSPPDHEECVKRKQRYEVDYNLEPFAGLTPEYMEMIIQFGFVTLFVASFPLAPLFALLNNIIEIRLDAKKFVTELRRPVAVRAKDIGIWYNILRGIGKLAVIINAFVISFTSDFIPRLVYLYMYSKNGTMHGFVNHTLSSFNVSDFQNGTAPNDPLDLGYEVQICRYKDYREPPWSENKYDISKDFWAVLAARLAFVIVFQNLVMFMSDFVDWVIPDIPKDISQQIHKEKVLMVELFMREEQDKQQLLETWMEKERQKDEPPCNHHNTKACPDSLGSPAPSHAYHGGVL
Procedure summary: medchem TMEM16A halide-sensitive YFP assay, 22-point dose-response
Assay type: cell-based
Design: expressed in transfected cells
Condition set: supplement; iodide as permeant anion, maximum concentration 55.6; read-out: TMEM16A eYFP Assay IC50
Please provide measured pIC50 for the entries that follow.
Convention used: pIC50 is expressed as -log10 of the molar concentration.

Kindly note the recorded pIC50 for O=C(Nc1ccc([N+](=O)[O-])cc1Cl)c1cc(Cl)ccc1O [Niclosamide] , which is 6.88

Documented pIC50 of Oc1ccc(Cl)cc1Cc1cc(Cl)ccc1O : 5.36

pIC50 reported for this molecule CC(=O)c1ccc(NC(=O)c2cc(Cl)ccc2O)cc1 : 5.58

The molecule N#Cc1c(C(F)(F)F)cc(O)n2c1nc1ccccc12 showed pIC50 equal to 5.82

Field pIC50 (entry O=C(Nc1cccc(Cl)c1)c1cc(Cl)ccc1O ) reads 7.05

Lab note: measured pIC50 of O=C(Nc1ccccc1Cl)c1cc(Cl)ccc1O was 6.48

pIC50 in this record for O=C(Nc1ccc(F)cc1F)c1cc(Cl)ccc1O : 6.51

The molecule listed as Cc1ccc(-c2nnn(CC(=O)N(c3cccc(C(F)(F)F)c3)C(C(=O)NC(C)(C)C)c3cccs3)n2)cc1 (stereo not shown) shows pIC50 equal to 6.48

pIC50 recorded for this molecule, CC1(C)C(O)C1C#Cc1ccccc1 (stereo not shown) , is 6.33

Entry O=C(Nc1ccc(F)cc1)c1cc(Cl)ccc1O ; pIC50 = 6.60

Data provenance is paper PMC6382696.
